Cited source: PubChem BioAssay AID489024

- TESTED TARGET: CHO-CHOP luciferase reporter, UPR activation, luminescence
- TEST DETAILS: CHOP reporter induction, apoptotic UPR branch – CHO-CHOP cells, luciferase luminescence, confirmation (AID 489024);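 also: compounds added alone to reporter cells with no tunicamycin stress co-treatment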
The source made the active and inactive calls.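 The calls were made as follows: active = compounds whose mean EC50, the dose giving half the maximal reporter activation, is at or below a set limit; inactive = the rest.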
ENDPOINT NAME: EC50

Worked set:
O=C1C=CC(=O)N1c1ccc(N2CCCCC2)cc1 ... > 80 µM (inactive)
COc1nc(N)nc(NC(=O)c2cccs2)c1N=O ... 17.9 µM

Continue with the next molecule.
[Q] Look up EC50 for this molecule: CCCC[C@@H](C)C[C@@H](C)C(=O)N(C)[C@@H](CC(C)C)C(=O)N[C@H](C(=O)N(C)[C@H](C(=O)N1C[C@@H](O)C[C@H]1C(=O)N1C(=O)C=C[C@@H]1C)C(C)C)C(C)OC(C)=O (some centres undefined)
[A] 10.4 µM

* * *

Entries annotated with measured EC50
- TESTED TARGET: CHO-CHOP luciferase reporter, UPR activation, luminescence
- TEST DETAILS: CHOP reporter induction, apoptotic UPR branch – CHO-CHOP cells, luciferase luminescence, confirmation (AID 489024);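 also: compounds added alone to reporter cells with no tunicamycin stress co-treatment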
Activity calls are given as the source filed them.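 The calls were made as follows: active = compounds whose mean EC50, the dose giving half the maximal reporter activation, is at or below a set limit; inactive = the rest.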

Worked set:
CCOC(=O)c1sc(NC(=S)NC(=O)c2ccccc2)c(C(=O)OCC)c1C ... > 80 µM (inactive)
CC(C)(C)c1ccc(/C=C(\c2nc3ccccc3[nH]2)S(=O)(=O)c2ccccc2)cc1 ... 7.17 µM
Cn1nnnc1Sc1ncnc2scc(-c3cc4ccccc4o3)c12 ... 9.26 µM
Cc1cc(C(=O)c2ccc(Cl)cc2)c(NC(=O)CCl)s1 ... 16.4 µM
O=[N+]([O-])c1ccc(Sc2nnnn2-c2ccccc2)nc1 ... > 80 µM (inactive)
O=C1Nc2ccccc2/C1=C/C(=O)c1cccs1 ... 14.4 µM

[Q] Look up EC50 for this compound: `FC(F)(F)c1nnc2c(Sc3ccc(Cl)cc3)nc3ccccc3n12`
[A] 4.12 µM

[Q] Look up EC50 for this compound: `CCOC(=O)c1sc(N(Cc2ccccc2)C(=O)CCl)nc1C`
[A] 7.96 µM

[Q] Look up EC50 for this compound: `O=C(CSc1cccc2cccnc12)N/N=C/c1cccnc1`
[A] 7.64 µM

[Q] Look up EC50 for this compound: `O=C(/C=C/c1ccc(O)c(O)c1)OCCc1ccccc1`
[A] 0.89 µM

[Q] Look up EC50 for this compound: `CCOc1cccc(C(=O)Nc2cccc(-c3nnc(-c4ccc(C)cc4)o3)c2)c1`
[A] > 80 µM (inactive)

* * *

- TESTED TARGET: CHO-CHOP luciferase reporter, UPR activation, luminescence
- TEST DETAILS: CHOP reporter induction, apoptotic UPR branch – CHO-CHOP cells, luciferase luminescence, confirmation (AID 489024);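 also: compounds added alone to reporter cells with no tunicamycin stress co-treatment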
Active and inactive are the calls of the source.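 How the source made its calls: active means compounds whose mean EC50, the dose giving half the maximal reporter activation, is at or below a set limit; inactive means the rest.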
# output must be one of True for active, False for inactive

Look over these answered cases.
O=c1[nH]c(-c2ccc(-c3cccc(Cl)c3)o2)nc2ccccc12 ... True
CCc1cccc2c(C(=O)CCl)c[nH]c12 ... True
O=C(Nc1nc(-c2ccc3ccccc3c2)cs1)c1ccc(N2C(=O)CCC2=O)cc1 ... False
c1ccc(-c2nc(N3CCCCCC3)c3ccccc3n2)nc1 ... False

[Q] Per the records of this test, what outcome belongs to `Cc1cccc(N=Nc2ccc(O)c3ncccc23)c1` ?
[A] True

[Q] Per the records of this test, what outcome belongs to `CC(=O)/C(=C/c1ccccc1)C(=O)Nc1ccccc1C` ?
[A] False

* * *

- TESTED TARGET: CHO-CHOP luciferase reporter, UPR activation, luminescence
- TEST DETAILS: CHOP reporter induction, apoptotic UPR branch – CHO-CHOP cells, luciferase luminescence, confirmation (AID 489024);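 also: compounds added alone to reporter cells with no tunicamycin stress co-treatment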
Active and inactive are the calls of the source.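 How the source made its calls: active means compounds whose mean EC50, the dose giving half the maximal reporter activation, is at or below a set limit; inactive means the rest.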
Entries annotated with measured EC50

Worked set:
C=C1C(=O)C=C[C@]2(C)C[C@@H]3OC(=O)[C@](C)(O)[C@H]3C[C@@H]12 ... 12.7 µM
C/C(=N\NC(=O)c1ccc(Cl)cc1)c1ccccn1 ... 8.06 µM
Cc1c(C#N)c(NC(=O)CCl)n(Cc2ccc(F)cc2)c1C ... 16 µM
O=C(/C(=C/c1cccc(Cl)c1)c1nc2ccccc2[nH]1)c1ccccc1 ... 6.66 µM
COc1ccc(/C=C/c2ccc3cccc(O)c3n2)c(OC)c1OC ... 8.23 µM
Cc1cc(SCC(=O)N/N=C/c2ccc(O)c(O)c2)nc2ccccc12 ... 18.3 µM
Oc1[nH]c2ccccc2c1N=NC(=S)N1CCOCC1 ... 7.74 µM
COc1ccc(N=Cc2c(O)c3ccccc3oc2=O)cc1 ... 8.64 µM

[Q] Look up EC50 for this molecule: `CCN1CSC(=S)N(Cc2ccccc2)C1`
[A] 8.48 µM

[Q] Look up EC50 for this molecule: `COc1cc(NS(=O)(=O)c2ccc3ccccc3c2)c2ncccc2c1`
[A] 7.5 µM

[Q] Look up EC50 for this molecule: `Cc1ccccc1NC(=O)c1ccc(N/N=C/c2ccccc2O)c([N+](=O)[O-])c1`
[A] 9.06 µM

[Q] Look up EC50 for this molecule: `C=C(C(=O)c1ccccc1)C(C(=C)C(=O)c1ccccc1)c1ccc(OC)cc1`
[A] 15.3 µM

[Q] Look up EC50 for this molecule: `Cc1c(C#N)c(NC(=O)CCl)n(Cc2cccs2)c1C`
[A] > 80 µM (inactive)

[Q] Look up EC50 for this molecule: O=C(CCl)N1N=C(c2cccs2)CC1c1ccco1 (stereo not given)
[A] > 80 µM (inactive)

[Q] Look up EC50 for this molecule: `O=C(Nc1ccc(-c2nc3ncccc3o2)cc1)c1ccc([N+](=O)[O-])o1`
[A] 1.08 µM

* * *

- TESTED TARGET: CHO-CHOP luciferase reporter, UPR activation, luminescence
- TEST DETAILS: CHOP reporter induction, apoptotic UPR branch – CHO-CHOP cells, luciferase luminescence, confirmation (AID 489024);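 also: compounds added alone to reporter cells with no tunicamycin stress co-treatment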
Activity calls are given as the source filed them.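 How the source made its calls: active means compounds whose mean EC50, the dose giving half the maximal reporter activation, is at or below a set limit; inactive means the rest.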
# output must be one of active, inactive

Look over these answered cases.
Oc1c(C(c2ccccn2)N2CCC(Cc3ccccc3)CC2)cc(Cl)c2cccnc12 (stereo not drawn) ... inactive
Cc1ccc(-c2nn3c(C)nnc3s2)cc1NC(=O)c1ccc(-c2ccc(Cl)cc2Cl)o1 ... active
Cc1cc(NC(=O)c2cc(-c3ccccn3)nc3ccc(Br)cc23)no1 ... inactive
CCN(CC)S(=O)(=O)c1ccc(N/N=C(\C)c2ccc3c(c2)OCO3)c([N+](=O)[O-])c1 ... inactive
Cc1cc(C(=O)CCl)c(C)n1CC1COc2ccccc2O1 (stereo not drawn) ... active
Cc1ccc2nc(-c3ccc(NC(=S)NC4CC(C)(C)NC(C)(C)C4)cc3)sc2c1 ... active

[Q] Per the records of this test, what outcome belongs to `Cc1ccc(NC(=O)COc2ccc(/C=C3/SC(=Nc4ccccc4)N(Cc4cccnc4)C3=O)cc2)cc1` ?
[A] inactive

[Q] Per the records of this test, what outcome belongs to `CC(C)N1C(=O)/C(=C/C=C/c2ccco2)C(=O)N(Cc2ccco2)C1=O` ?
[A] active

[Q] Per the records of this test, what outcome belongs to `CC1=C/C(=N\OC(=O)/C=C/c2ccccc2)C(C)=CC1=O` ?
[A] inactive

[Q] Per the records of this test, what outcome belongs to `COc1ccc(/C=N/Nc2cc(C)nc(-n3nc(C)cc3C)n2)c(OC)c1` ?
[A] active

[Q] Per the records of this test, what outcome belongs to CCCCCOc1ccc(N2C(=O)CC(N(O)c3ccccc3)C2=O)cc1 (stereo not drawn) ?
[A] active

[Q] Per the records of this test, what outcome belongs to `Cc1cc(C(=O)CCl)c(C)n1Cc1ccco1` ?
[A] active

[Q] Per the records of this test, what outcome belongs to Cc1ccc(/C=C2\CCC3=C2OC(N)=C(C#N)C3c2ccc(C)cc2)cc1 (stereo not drawn) ?
[A] active

[Q] Per the records of this test, what outcome belongs to `CC(=O)c1cccc(N=Cc2c(O)c3ccccc3oc2=O)c1` ?
[A] active

[Q] Per the records of this test, what outcome belongs to `COc1ccc(N=Nc2ccc(O)c3ncccc23)cc1` ?
[A] active

[Q] Per the records of this test, what outcome belongs to `COc1ccc(-c2csc3nc(-c4ccc(C)cc4)oc(=O)c23)cc1OC` ?
[A] inactive

[Q] Per the records of this test, what outcome belongs to `Oc1ccc(/C=N/N2CCN(C3c4ccccc4-c4ccccc43)CC2)cc1O` ?
[A] inactive

[Q] Per the records of this test, what outcome belongs to `CC(C)c1cccc(-c2ccc3c(c2)S(=O)(=O)c2cccc(C(=O)NCc4ccccc4Cl)c2C3=O)c1` ?
[A] active

[Q] Per the records of this test, what outcome belongs to COc1ccc(C(c2c(C)[nH]n(C(N)=S)c2=O)C(C#N)C#N)cc1 (stereo not drawn) ?
[A] inactive

[Q] Per the records of this test, what outcome belongs to `CC(C)N=c1scc(-c2ccco2)n1/N=C/c1ccc(O)c(O)c1` ?
[A] active

[Q] Per the records of this test, what outcome belongs to `Oc1ccc(-c2csc(Nc3cccc4ccccc34)n2)cc1O` ?
[A] active

[Q] Per the records of this test, what outcome belongs to `O=C(COC(=O)c1ccccc1C(=O)c1ccc(Cl)c([N+](=O)[O-])c1)NC1CCCCCC1` ?
[A] inactive

[Q] Per the records of this test, what outcome belongs to `CC(C)CNC(=O)c1coc(=O)c(Br)c1` ?
[A] active
